- run.parameters: in methanol, 303.15 K
value.type: solubility (mole fraction)
// return a plain number; no unit text

Give its solubility (mole fraction) value. Item: O=C(Nc1ccc(F)cc1F)c1cccnc1Oc1cccc(C(F)(F)F)c1
0.00075

* * *

- run.parameters: in toluene, 278.15 K
value.type: solubility (mole fraction)
// return a plain number; no unit text

Give its solubility (mole fraction) value. Item: O=C(Nc1ccc(F)cc1F)c1cccnc1Oc1cccc(C(F)(F)F)c1
0.00513

* * *

- run.parameters: in ethanol, 323.15 K
value.type: solubility (mole fraction)

Give its solubility (mole fraction) value. Item: O=C(Nc1ccc(F)cc1F)c1cccnc1Oc1cccc(C(F)(F)F)c1
0.00214

meta.source: BigSolDB 2.1
